Test system: CEM cells HIV-1 protection, formazan growth assay
TEST_DESCRIPTION: NCI AIDS Antiviral Assay
Activity calls are given as the source filed them.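 The calls were made as follows: active = compounds giving half or more protection of infected cells from virus-caused growth loss, again on retest; inactive = the rest.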
MEASURED_PARAMETER: outcome

MOLECULE: Cc1cc(=O)[nH]c2[nH][nH]c(=O)c12
VALUE: inactive

MOLECULE: CC1OC(OC2C(O[C@H]3CC[C@@]4(C)C(=CC[C@H]5[C@@H]6C[C@@H]7O[C@]8(CC[C@H](C)CN8)[C@@H](C)[C@@H]7[C@@]6(C)CC[C@@H]54)C3)OC(CO)C(O)C2OC2OC(CO)C(O)C(O)C2O)C(O)C(O)C1O (some centres undefined)
VALUE: inactive

MOLECULE: COc1ccccc1NC(=O)CC(=O)N1N=C(N(c2ccccc2)c2ccccc2)CC1c1ccccc1 (centres undefined)
VALUE: inactive

MOLECULE: NNC(=O)N/N=C1\CNC(=O)C(=O)C1c1nc2ccccc2s1 (centres undefined)
VALUE: inactive

MOLECULE: CC(=O)c1ccc(NC(=O)/C(Cc2ccccn2)=N/NC(=O)C[N+](C)(C)C)cc1
VALUE: inactive

MOLECULE: COC(=O)N1C2C3CC4C2C4C3N1C(=O)OC
VALUE: inactive

MOLECULE: CC1=NN(C(=O)c2ccccc2O)C(=O)C1N=Nc1ccccc1C(=O)O (centres undefined)
VALUE: inactive

MOLECULE: O=S(=O)(c1ccccc1)C1CN2OC1(S(=O)(=O)c1ccccc1)CC21CCCCC1 (centres undefined)
VALUE: inactive

Just for reference, PubChem BioAssay AID179 is where these values come from.
